assay system: PB2cap (Influenza A virus (A/Udorn/307/1972(H3N2)), UniProt Q67296)
protocol: biochemical
Type: binding, influenza A/Udorn/307/1972(H3N2)
quantity name: pKd
Worth noting: pKd values are minus log10 of concentrations stated in mol/L.

query: Fill in reported pKd for this entry: `O=C(O)[C@H]1C2CCC(CC2)[C@@H]1Nc1nc(-c2c[nH]c3ncc(F)cc23)ncc1F`
result: 7.11

* * *

assay system: PB2long (Influenza A virus (A/Udorn/307/1972(H3N2)))
Sequence (Q67296 241-741 limits assumed): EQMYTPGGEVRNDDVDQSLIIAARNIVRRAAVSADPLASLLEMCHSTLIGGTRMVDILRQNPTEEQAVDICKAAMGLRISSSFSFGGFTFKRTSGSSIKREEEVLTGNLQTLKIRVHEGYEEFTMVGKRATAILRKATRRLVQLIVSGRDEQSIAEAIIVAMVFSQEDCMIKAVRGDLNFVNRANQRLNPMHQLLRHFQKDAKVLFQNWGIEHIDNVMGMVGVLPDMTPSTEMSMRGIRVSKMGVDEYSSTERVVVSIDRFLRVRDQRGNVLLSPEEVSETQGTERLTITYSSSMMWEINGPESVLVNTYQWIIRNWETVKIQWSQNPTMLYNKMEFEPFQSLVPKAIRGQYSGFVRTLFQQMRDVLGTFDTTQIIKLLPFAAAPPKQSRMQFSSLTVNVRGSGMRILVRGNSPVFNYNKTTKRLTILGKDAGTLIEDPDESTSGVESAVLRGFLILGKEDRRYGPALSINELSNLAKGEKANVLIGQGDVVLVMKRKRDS
protocol: biochemical
Assay type: binding, influenza A/Udorn/307/1972(H3N2)
quantity name: pKd
Just the number, please; pKd means minus log10 of the concentration in mol/L.

query: Identify measured pKd associated with `O=C(O)[C@H]1C2CCC(CC2)[C@@H]1Nc1nc(-c2c[nH]c3ncc(F)cc23)ncc1F`
result: 11.17

* * *

assay system: influenza A PB2long (FluA H3N2 PB2 241–741) (Influenza A virus (A/Udorn/307/1972(H3N2)), UniProt Q67296)
protocol: biochemical
quantity name: pKd
Expect pKd as a plain number equal to -log10 of the molar concentration.

query: Indicate its recorded pKd; the molecule in question is `O=C(O)[C@H]1C2CCC(CC2)[C@@H]1Nc1nc(-c2c[nH]c3ncc(F)cc23)ncc1F`
result: 9.17

The values you see were collected from paper PMC5571044.
